# Tested on: HEK-293T
# Protocol Description: Multiplex assay against HEK293T
# Format: toxicity, cell-based
# Test Parameters: human, 12 h, 10 µM, compound concentration 10 uM, replicate 1
Outcome Measure: Population Mitotic Cells (%)
Dear colleague, please send the value followed by its unit.

Request: Please report the recorded Population Mitotic Cells (%) for CCOc1cc2ncc(C#N)c(Nc3ccc(OCc4cccc(F)c4)c(Cl)c3)c2cc1NC(=O)/C=C/CN(C)C .
Result: 68%

Request: Please report the recorded Population Mitotic Cells (%) for CC(C)N1CCC(C)(C)c2cc(C#Cc3ccc(C(=O)O)cc3)ccc21 .
Result: 47%

* * *

# System: HEK-293T
# Protocol Description: Multiplex assay against HEK293T
# Assay type: toxicity, cell-based
# Test Parameters: human, 12 h, 1 µM, compound concentration 1 uM, replicate 1
# maps each entry to its Population Pyknosed Nuclei (%)
Report the figure in % without appending any unit label.

Use the examples below as a reference point.
>  <Compound>
COc1cc2c(Nc3ccc(NC(=O)c4ccccc4)cc3)ncnc2cc1OCCCN1CCOCC1

>  <Unit Text>
%

>  <Population Pyknosed Nuclei (%)>
43

$$$$
>  <Compound>
CC(C)N1CCC(C)(C)c2cc(C#Cc3ccc(C(=O)O)cc3)ccc21

>  <Unit Text>
%

>  <Population Pyknosed Nuclei (%)>
41

$$$$
>  <Compound>
COc1cc2c(NC3CCN(C(C)C)CC3)nc(N3CCC(F)(F)CC3)nc2cc1OCCCN1CCCC1

>  <Unit Text>
%

>  <Population Pyknosed Nuclei (%)>
50

$$$$
>  <Compound>
COc1ccc(NS(=O)(=O)c2sc3ccc(Cl)cc3c2C)cc1N1CCNCC1.Cl

>  <Unit Text>
%

>  <Population Pyknosed Nuclei (%)>
45

$$$$
>  <Compound>
Cc1cc2c(cc1N1C(=O)c3cccc4c(CCCO)ccc(c34)C1=O)n(C)c(=O)n2C

>  <Unit Text>
%

>  <Population Pyknosed Nuclei (%)>
41

$$$$

Now consider a different compound.
Request: Please report the recorded Population Pyknosed Nuclei (%) for CC(C)Oc1ccc(C(=O)N[C@H](CNC(=O)CN(C)C)Cc2ccc(-c3cn4cccc([C@H](C)O)c4n3)cc2)cc1Cl [GSK-923295A] .
Result: 28

* * *

# Test system: Fibroblast
# Protocol Description: Multiplex assay against human fibroblast
# Format: toxicity, cell-based
# Test Parameters: 12 h, 1 µM, compound concentration 1 uM, replicate 2
Outcome Measure: Population Membrane Permeable-Phenotype (%)
Report the figure in % without appending any unit label.

Request: Please report the recorded Population Membrane Permeable-Phenotype (%) for COc1cc(N2CCC(N(C)C)CC2)ccc1Nc1ncc(Cl)c(Nc2ccccc2P(C)(C)=O)n1 .
Result: 14

Request: Please report the recorded Population Membrane Permeable-Phenotype (%) for CC(C)(C)c1cnc(CSc2cnc(NC(=O)C3CCNCC3)s2)o1 .
Result: 5

Request: Please report the recorded Population Membrane Permeable-Phenotype (%) for CNC(=O)c1cc(Oc2ccc(NC(=O)Nc3cc(C(C)(C)C)nn3-c3ccc4ncccc4c3)c(F)c2)ccn1 .
Result: 26

Request: Please report the recorded Population Membrane Permeable-Phenotype (%) for Nc1nc2c(c(N3CCNCC3)n1)CCC1=C2[C@@H]2CCCC[C@@H]2O1 .
Result: 8

* * *

# System: Fibroblast
# Protocol Description: Multiplex assay against human fibroblast
# Format: toxicity, cell-based
# Test Parameters: 24 h, 10 µM, compound concentration 10 uM, replicate 1
Outcome Measure: Total Cell Count
// response body must contain only the number

>  <Compound>
COc1cc2c(NC3CCN(C(C)C)CC3)nc(N3CCC(F)(F)CC3)nc2cc1OCCCN1CCCC1

>  <Subject Of Test>
Fibroblast

>  <Total Cell Count>
271

$$$$

Request: Please report the recorded Total Cell Count for CCC(=O)O[C@]1(C(=O)SCF)[C@H](C)C[C@H]2[C@@H]3C[C@H](F)C4=CC(=O)C=C[C@]4(C)[C@@]3(F)[C@@H](O)C[C@@]21C [FLUTICASONE PROPIONATE] .
Result: 149

Request: Please report the recorded Total Cell Count for Nc1nc2c(c(N3CCNCC3)n1)CCC1=C2[C@@H]2CCCC[C@@H]2O1 .
Result: 240

* * *

# maps each entry to its Total Cell Count
# Test system: HEK-293T
# Protocol Description: Multiplex assay against HEK293T
# Format: toxicity, cell-based
# Test Parameters: human, 24 h, 10 µM, compound concentration 10 uM, replicate 2
// response body must contain only the number

Use the examples below as a reference point.
>  <Molecule>
CN(C)C/C=C/C(=O)Nc1cc2c(Nc3ccc(F)c(Cl)c3)ncnc2cc1O[C@H]1CCOC1.O=C(O)/C=C\C(=O)O.O=C(O)/C=C\C(=O)O [AFATINIB DIMALEATE]

>  <Total Cell Count>
1048

$$$$
>  <Molecule>
CC(=O)c1cc(-c2cc(C(=O)NC3CC3)ccc2C)c2ncccn12

>  <Total Cell Count>
233

$$$$
>  <Molecule>
Cc1cc2c(cc1N1C(=O)c3cccc4c(CCCO)ccc(c34)C1=O)n(C)c(=O)n2C

>  <Total Cell Count>
377

$$$$

Request: Please report the recorded Total Cell Count for CNc1oc(-c2cccc3ccccc23)nc1C#N .
Result: 2734

* * *

# maps each entry to its Population Membrane Permeable-Phenotype (%)
# System: HEK-293T
# Protocol Description: Multiplex assay against HEK293T
# Assay type: toxicity, cell-based
# Test Parameters: human, 24 h, 10 µM, compound concentration 10 uM, replicate 1

>  <Compound>
Nc1nc2c(c(N3CCNCC3)n1)CCC1=C2[C@@H]2CCCC[C@@H]2O1

>  <Assay Result>
0%

$$$$
>  <Compound>
CN(C)CCOc1ccc(-c2nc(-c3ccncc3)c(-c3ccc4c(c3)CC/C4=N\O)[nH]2)cc1 [SB590885]

>  <Assay Result>
10%

$$$$
>  <Compound>
CCc1cc2c(cc1CC)CC(NC[C@H](O)c1ccc(O)c3[nH]c(=O)ccc13)C2 [INDACATEROL]

>  <Assay Result>
6%

$$$$
>  <Compound>
CNc1oc(-c2cccc3ccccc23)nc1C#N

>  <Assay Result>
0%

$$$$
>  <Compound>
CC(C)N1CCC(C)(C)c2cc(C#Cc3ccc(C(=O)O)cc3)ccc21

>  <Assay Result>
6%

$$$$
>  <Compound>
COc1cc2c(NC3CCN(C(C)C)CC3)nc(N3CCC(F)(F)CC3)nc2cc1OCCCN1CCCC1

>  <Assay Result>
0%

$$$$
>  <Compound>
O=C(O)c1ccc2c(c1)nc(Nc1cccc(Cl)c1)c1ccncc12 [SILMITASERTIB]

>  <Assay Result>
10%

$$$$

Now consider a different compound.
Request: Give recorded Population Membrane Permeable-Phenotype (%) with HEK-293T for the following compound: CN(C)C/C=C/C(=O)Nc1cc2c(Nc3ccc(F)c(Cl)c3)ncnc2cc1O[C@H]1CCOC1.O=C(O)/C=C\C(=O)O.O=C(O)/C=C\C(=O)O [AFATINIB DIMALEATE]
Result: 10%

* * *

# maps each entry to its Population Membrane Permeable-Phenotype (%)
# Test system: U2OS
# Protocol Description: Multiplex assay against U2OS
# Format: toxicity, cell-based
# Test Parameters: human, 12 h, 10 µM, compound concentration 10 uM, replicate 1
Report the figure in % without appending any unit label.

Use the examples below as a reference point.
>  <Smi>
CCOc1cc2ncc(C#N)c(Nc3ccc(OCc4cccc(F)c4)c(Cl)c3)c2cc1NC(=O)/C=C/CN(C)C

>  <Subject Of Test>
U2OS

>  <Assay Result>
43

$$$$
>  <Smi>
Cc1cn(-c2cc(NC(=O)c3ccc4c(c3)CN(c3cncnc3)C[C@@H]4C)cc(C(F)(F)F)c2)cn1

>  <Subject Of Test>
U2OS

>  <Assay Result>
40

$$$$
>  <Smi>
N#Cc1cnc(Nc2cc(NC[C@H]3CNCCO3)c(C(F)(F)F)cn2)cn1

>  <Subject Of Test>
U2OS

>  <Assay Result>
11

$$$$

Request: Give recorded Population Membrane Permeable-Phenotype (%) with U2OS for the following compound: COc1cc2c(Nc3ccc(NC(=O)c4ccccc4)cc3)ncnc2cc1OCCCN1CCOCC1
Result: 10

* * *

# Test system: U2OS
# Protocol Description: Multiplex assay against U2OS
# Assay type: toxicity, cell-based
# Test Parameters: human, 12 h, 1 µM, compound concentration 1 uM, replicate 2
# maps each entry to its Population Membrane Permeable-Phenotype (%)
Report the figure in % without appending any unit label.

>  <Molecule>
Cl.Cl.NC1(c2ccc(-c3nc4ccn5c(=O)[nH]nc5c4cc3-c3ccccc3)cc2)CCC1

>  <Assay Result>
10

$$$$

Request: Please report the recorded Population Membrane Permeable-Phenotype (%) for Cl.Cl.Nc1ncnc2c1c(-c1cccc(OCc3ccccc3)c1)cn2[C@H]1C[C@@H](CN2CCC2)C1 .
Result: 3

Request: Please report the recorded Population Membrane Permeable-Phenotype (%) for COc1ccc(NS(=O)(=O)c2sc3ccc(Cl)cc3c2C)cc1N1CCNCC1.Cl .
Result: 0

Request: Please report the recorded Population Membrane Permeable-Phenotype (%) for CC(C)(C)c1cnc(CSc2cnc(NC(=O)C3CCNCC3)s2)o1 .
Result: 21

Request: Please report the recorded Population Membrane Permeable-Phenotype (%) for CC(C)N1CCC(C)(C)c2cc(C#Cc3ccc(C(=O)O)cc3)ccc21 .
Result: 6

Request: Please report the recorded Population Membrane Permeable-Phenotype (%) for Cc1cn(-c2cc(NC(=O)c3ccc4c(c3)CN(c3cncnc3)C[C@@H]4C)cc(C(F)(F)F)c2)cn1 .
Result: 11

Request: Please report the recorded Population Membrane Permeable-Phenotype (%) for CCOc1cc(N2CCC(O)CC2)ccc1Nc1ncc2c(n1)N(C1CCCC1)CCC(=O)N2C .
Result: 18

Request: Please report the recorded Population Membrane Permeable-Phenotype (%) for CCC(=O)O[C@]1(C(=O)SCF)[C@H](C)C[C@H]2[C@@H]3C[C@H](F)C4=CC(=O)C=C[C@]4(C)[C@@]3(F)[C@@H](O)C[C@@]21C [FLUTICASONE PROPIONATE] .
Result: 3
